# study_target: Voltage-gated inwardly rectifying potassium channel KCNH2 (Homo sapiens) (UniProt Q12809)
# Sequence (Q12809 whole entry, looked up): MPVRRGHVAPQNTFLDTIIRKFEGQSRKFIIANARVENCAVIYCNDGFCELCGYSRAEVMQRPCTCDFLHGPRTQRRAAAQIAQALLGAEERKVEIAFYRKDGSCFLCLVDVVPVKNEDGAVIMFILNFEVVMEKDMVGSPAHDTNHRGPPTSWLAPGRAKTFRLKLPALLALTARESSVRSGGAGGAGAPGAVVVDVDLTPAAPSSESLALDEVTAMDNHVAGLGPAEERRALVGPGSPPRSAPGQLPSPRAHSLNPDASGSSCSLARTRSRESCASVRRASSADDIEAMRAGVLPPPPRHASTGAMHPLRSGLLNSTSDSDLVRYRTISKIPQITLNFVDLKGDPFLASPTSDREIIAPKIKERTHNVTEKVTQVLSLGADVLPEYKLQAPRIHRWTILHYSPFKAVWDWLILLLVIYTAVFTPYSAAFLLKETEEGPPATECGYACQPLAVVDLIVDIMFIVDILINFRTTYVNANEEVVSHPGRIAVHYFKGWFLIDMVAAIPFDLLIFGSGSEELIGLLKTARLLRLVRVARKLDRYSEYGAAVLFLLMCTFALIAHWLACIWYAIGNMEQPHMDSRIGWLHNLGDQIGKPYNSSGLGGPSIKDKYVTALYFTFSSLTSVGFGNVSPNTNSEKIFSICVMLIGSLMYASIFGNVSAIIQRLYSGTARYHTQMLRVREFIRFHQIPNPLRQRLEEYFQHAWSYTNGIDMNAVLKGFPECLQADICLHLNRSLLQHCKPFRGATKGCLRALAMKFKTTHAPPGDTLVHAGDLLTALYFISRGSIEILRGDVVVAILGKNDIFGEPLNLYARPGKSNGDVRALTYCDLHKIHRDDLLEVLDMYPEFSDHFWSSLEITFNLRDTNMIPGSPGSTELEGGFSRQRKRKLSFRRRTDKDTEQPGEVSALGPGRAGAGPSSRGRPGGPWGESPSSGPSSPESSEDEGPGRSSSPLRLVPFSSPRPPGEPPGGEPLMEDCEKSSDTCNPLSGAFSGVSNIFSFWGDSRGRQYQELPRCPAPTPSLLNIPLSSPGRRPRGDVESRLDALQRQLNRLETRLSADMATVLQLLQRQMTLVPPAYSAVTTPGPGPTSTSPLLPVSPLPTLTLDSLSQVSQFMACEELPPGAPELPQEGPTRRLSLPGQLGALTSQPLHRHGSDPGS
# procedure_summary: hERG protection against dofetilide inhibition, confirmation, cell-based, thallium flux, duplicate retest, dofetilide IC70 (AID 1835)
# measurement_conditions: hERG cell line, FluxOR thallium flux, dofetilide-blocked; at 10 µM; hits give high values
In all, about 2,400 compounds went through this assay and about 750 (31%) were called active. The list shows a part of the results.
property_measured: activity increase over dofetilide control, less the hit threshold (%)
One number for each entry, in %.

Completed entries (count: 2):
INSERT INTO measurements (compound, study_target, experimental_result) VALUES
  ('O=C(NC(=S)Nc1cccc(Cl)c1N1CCOCC1)c1cccs1', 'Voltage-gated inwardly rectifying potassium channel KCNH2 (Homo sapiens) (UniProt Q12809)', -5),
  ('O=c1c(C(c2ccc(O)cc2)c2c(O)nc3n(c2=O)CCS3)c(O)nc2n1CCS2', 'Voltage-gated inwardly rectifying potassium channel KCNH2 (Homo sapiens) (UniProt Q12809)', 3);

State the recorded activity increase over dofetilide control, less the hit threshold for every item in the following list.
1. C=CCn1c(=S)[nH]c2scc(-c3cccs3)c2c1=O
2. O=C(NC(=S)NC1CCCc2ccccc21)c1ccco1 (stereo unspecified)
3. O=C(CNC1CCCCCC1)Nc1ccccc1N1CCOCC1

1. 90
2. 13
3. -12

Report activity increase over dofetilide control, less the hit threshold, nothing else, for this compound: "CC(C)Cn1c(=S)[nH]c2cc(Cl)ccc21" 5

---

# study_target: Voltage-gated inwardly rectifying potassium channel KCNH2 (Homo sapiens)
# procedure_summary: hERG protection against dofetilide inhibition, confirmation, cell-based, thallium flux, duplicate retest, dofetilide IC70 (AID 1835)
# measurement_conditions: hERG cell line, FluxOR thallium flux, dofetilide-blocked; at 10 µM; hits give high values
In all, about 2,400 compounds went through this assay and about 750 (31%) were called active. The list shows a part of the results.
property_measured: activity increase over dofetilide control, less the hit threshold (%)
Answers are plain numbers, in %.

Known results for compounds:
INSERT INTO results (compound, experimental_result) VALUES
  ('Cc1ccc(NC(=S)NC(=O)c2sc3ccccc3c2Cl)c(C(=O)O)c1', -1),
  ('Cc1cccc(NC(=S)N/N=C2\CC(C)(C)Oc3ccc(O)cc32)c1', -5),
  ('CCOC(=S)NC(=O)c1sc2ccccc2c1Cl', 40),
  ('CCc1noc(C)c1C(=O)N1CCCC(N2CCN(c3ccccc3F)CC2)C1 (stereo unspecified)', -1),
  ('CCCCOC(=S)NC(=O)c1sc2ccccc2c1Cl', 86);

For every item in the list below, what is its measured activity increase over dofetilide control, less the hit threshold?
1. O=C(N/N=C/c1ccccn1)c1sc2ccccc2c1Cl
2. Cc1cccc(N2CCN(C(=O)C3CCN(S(=O)(=O)c4cccnc4)CC3)CC2)c1C
3. O=C(COc1ccc(Cl)cc1)N1CCN(Cc2ccc3c(c2)OCO3)CC1
4. Cc1ccc(-n2nc(C)c3c2OC(N)=C(C#N)C3c2ccoc2)cc1 (stereo unspecified)
5. O=C(NC(=S)N1CCN(C/C=C/c2ccccc2)CC1)c1ccc(Cl)nc1
6. CCCOC(=S)NC(=O)c1sc2ccccc2c1Cl

[-27, -8, -17, -19, -7, 30]

---

Give activity increase over dofetilide control, less the hit threshold for every item shown.
# study_target: Voltage-gated inwardly rectifying potassium channel KCNH2 (Homo sapiens) (UniProt Q12809)
# procedure_summary: hERG protection against dofetilide inhibition, confirmation, cell-based, thallium flux, duplicate retest, dofetilide IC70 (AID 1835)
# measurement_conditions: hERG cell line, FluxOR thallium flux, dofetilide-blocked; at 10 µM; hits give high values
The whole screen tested about 2,400 compounds, of which about 750 (31%) were called active. The list shows a part of the results.
Answers are plain numbers, in %.

Record excerpt, results attached:
INSERT INTO measurements (compound, experimental_result) VALUES
  ('COc1ccc(C(=O)CC(=O)C(=O)Nc2ccc(Cl)cc2)cc1', 9),
  ('O=C(NC(=S)Nc1ccc(N2CCOCC2)c(Cl)c1)c1sc2ccccc2c1Cl', 15),
  ('COc1ccc(NC(=O)c2cc(S(=O)(=O)N3CCOCC3)ccc2N2CCOCC2)cc1', -16),
  ('O=C(NC(=S)Nc1ccc(N2CCCCC2)cc1)c1cccs1', -2),
  ('O=C1c2ccccc2C(=O)N1c1cccnc1', -12);

Hi there! I need activity increase over dofetilide control, less the hit threshold for each item below, if you can.
1. COc1ccc(CCNC(=O)C2CCCN(S(C)(=O)=O)C2)cc1 (centres undefined)
2. COCC(=O)NC1CC2CCC(C1)N2C(=S)Nc1ccccc1C(=O)OC (centres undefined)

1: -15; 2: -6

Value sought for every listed compound: activity increase over dofetilide control, less the hit threshold.
1. CCCOc1ccc(-c2c(C(=O)N/N=C/c3ccccc3OCC)nnn2-c2nonc2N)cc1
2. O=C1CN(C(=O)COc2ccccc2F)c2ccccc2N1
3. Cc1ccc(Nc2cc(C)nn2-c2nc(C)cc(=O)[nH]2)cc1
4. Cc1cccc(N/C(N)=N/c2nc(C)cc(=O)[nH]2)c1
5. COc1ccc(C(=O)CC(=O)C(=O)Nc2ccccc2)cc1
6. CC(C)C(=O)N(c1ccc(F)cc1)C1C=CS(=O)(=O)C1 (centres undefined)
7. Cc1ccc(C(C)C)cc1OCCn1cncn1

1. -7
2. -17
3. 40
4. -9
5. 5
6. -20
7. -24

Please give activity increase over dofetilide control, less the hit threshold for each item listed below.
1. Cc1cc(=S)[nH]c2c(C)cccc12
2. COc1ccc2nc(N=Nc3c(O)ccc4ccccc34)sc2c1
3. CC(=O)Nc1ccc(S(=O)(=O)N2CCC(C(=O)O)CC2)cc1
4. O=C(NCC1CCCCC1)c1cccnc1Cl
5. Nc1ccc(Cl)c(NC(=O)c2cccs2)c1
6. COc1ccc(-c2cn3nc(SCC(=O)NC4CCCCC4)ccc3n2)cc1
7. COc1ccc(C(=O)CC(=O)C(=O)Nc2ccc(C)c(Cl)c2)cc1

5
31
-6
-14
-11
-2
0

Give me activity increase over dofetilide control, less the hit threshold for each of these compounds, listed below.
1. CCC1(c2ccccc2)NC(=S)N(c2ccc(C)c(C)c2)N1 (centres undefined)
2. CCC(=O)Nc1ccc(N2CCOCC2)c(S(=O)(=O)Nc2ccc(OC)cc2)c1
3. CCC1(c2ccc(Cl)cc2)NC(=S)N(c2ccc(C)c(C)c2)N1 (centres undefined)

[86, -26, 100]
